Target: GST-Syk Full Protein (human) (Homo sapiens, UniProt P43405)
Test: Syk kinase inhibition test (HTRF method)
Type: biochemical
Conditions: Tables 1-x, compounds A; read-out: sykHTRF ave IC50
pIC50: −log10 of the molar value.
# Lookup of reported pIC50 keyed by entry

Reference set, count: 3
>  <compound>
Cc1ccnc(Nc2cccc(-c3cnc(CN(C)CC(=O)N(C)C)s3)n2)c1

>  <pIC50>
6.00 to 7.00

$$$$
>  <compound>
Cc1ccnc(Nc2cccc(-c3cnc(N4CCN(CC(N)=O)C(=O)C4)s3)n2)c1

>  <pIC50>
> 7.00

$$$$
>  <compound>
Cc1ccnc(Nc2cccc(-c3cnc(CN4CCC[C@H]4CO)s3)n2)c1

>  <pIC50>
6.00 to 7.00

$$$$

*Q* Look up and report measured pIC50 for this entry: `Cc1ccnc(Nc2cccc(-c3cnc(N(CCO)CCO)s3)n2)c1`
*A* > 7.00

Ref: patent US7803801B2
